- testedTarget: CDK2/cyclin E (Homo sapiens, UniProt P24941)
- assayProcedure: Kinase assay, radioactive phosphate incorporation, CDK2/cyclin E
- conditionLabel: 100 μM ATP, 30° C.; read-out: Kinase inhibition IC50 CDK2/cyclin E
Recorded log10(IC50) by entry
measuredProperty: log10(IC50) (log10 of the value in nM)

>  <compound>
N#Cc1cccc(Nc2nccc(-c3cccc(Cn4cncn4)c3)n2)c1

>  <experimentalValue>
1.90

$$$$
>  <compound>
NC(=O)C1CCCN(Cc2cccc(-c3ccnc(Nc4cccc([N+](=O)[O-])c4)n3)c2)C1 (centres unmarked)

>  <experimentalValue>
2.30

$$$$
>  <compound>
O=[N+]([O-])c1cccc(Nc2nccc(-c3cccc(Cn4ccnc4)c3)n2)c1

>  <experimentalValue>
2.15

$$$$
>  <compound>
Oc1ccc(Nc2nccc(-c3cccc(Cn4cncn4)c3)n2)cc1

>  <experimentalValue>
2.15

$$$$
>  <compound>
O=[N+]([O-])c1cccc(Nc2nccc(-c3cccc(CN4CCCC4CNc4ccccc4)c3)n2)c1 (centres unmarked)

>  <experimentalValue>
2.91

$$$$
>  <compound>
Oc1cccc(Nc2nccc(-c3cccc(O)c3)n2)c1

>  <experimentalValue>
2.38

$$$$
>  <compound>
CN(C)Cc1cccc(-c2ccnc(Nc3cccc([N+](=O)[O-])c3)n2)c1

>  <experimentalValue>
1.00

$$$$
>  <compound>
CS(=O)(=O)NCc1cccc(-c2ccnc(Nc3cccc([N+](=O)[O-])c3)n2)c1

>  <experimentalValue>
2.62

$$$$

====

- testedTarget: CDK9/cyclin T1 (Homo sapiens)
- Sequence (P50750 whole entry, species assumed): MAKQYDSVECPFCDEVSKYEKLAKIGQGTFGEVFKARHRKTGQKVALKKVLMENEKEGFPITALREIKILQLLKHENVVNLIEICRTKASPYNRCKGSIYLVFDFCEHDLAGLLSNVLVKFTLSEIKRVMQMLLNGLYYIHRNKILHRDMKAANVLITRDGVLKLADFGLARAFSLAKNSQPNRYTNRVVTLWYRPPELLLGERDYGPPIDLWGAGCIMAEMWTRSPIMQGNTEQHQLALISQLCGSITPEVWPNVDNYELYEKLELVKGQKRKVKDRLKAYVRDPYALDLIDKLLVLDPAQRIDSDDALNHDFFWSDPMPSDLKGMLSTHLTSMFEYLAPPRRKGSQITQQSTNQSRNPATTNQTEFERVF
- Sequence (O60563 whole entry partner, species assumed): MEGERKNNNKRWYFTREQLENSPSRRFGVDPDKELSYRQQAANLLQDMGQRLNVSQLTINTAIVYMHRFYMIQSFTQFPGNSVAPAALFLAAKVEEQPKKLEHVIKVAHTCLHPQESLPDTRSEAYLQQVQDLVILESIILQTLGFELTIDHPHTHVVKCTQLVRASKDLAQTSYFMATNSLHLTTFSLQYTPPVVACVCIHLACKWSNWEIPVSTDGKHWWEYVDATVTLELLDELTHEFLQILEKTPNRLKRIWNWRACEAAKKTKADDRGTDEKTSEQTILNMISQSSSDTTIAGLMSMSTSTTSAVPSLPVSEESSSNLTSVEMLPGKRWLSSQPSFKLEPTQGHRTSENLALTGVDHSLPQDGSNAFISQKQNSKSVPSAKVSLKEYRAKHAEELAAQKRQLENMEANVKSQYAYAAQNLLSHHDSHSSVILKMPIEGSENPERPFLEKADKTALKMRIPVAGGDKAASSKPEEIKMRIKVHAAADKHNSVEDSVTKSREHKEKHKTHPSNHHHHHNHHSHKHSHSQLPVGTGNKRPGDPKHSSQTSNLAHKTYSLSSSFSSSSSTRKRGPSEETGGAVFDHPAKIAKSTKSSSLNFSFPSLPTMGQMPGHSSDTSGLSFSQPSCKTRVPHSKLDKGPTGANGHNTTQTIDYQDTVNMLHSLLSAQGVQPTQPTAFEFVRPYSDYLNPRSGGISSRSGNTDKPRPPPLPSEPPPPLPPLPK
- assayProcedure: Kinase assay, radioactive phosphate incorporation, CDK9/cyclin T1
- conditionLabel: 100 μM ATP, 30° C.; read-out: Kinase inhibition IC50 CDK9/cyclin T1

>  <compound>
COc1ccc(Nc2nccc(-c3cccc(Cn4cncn4)c3)n2)cn1

>  <testedTarget>
CDK9/cyclin T1 (Homo sapiens)

>  <unit>
nM

>  <IC50>
44

$$$$
>  <compound>
Oc1cccc(Nc2nccc(-c3cccc(CNCc4ccccc4)c3)n2)c1

>  <testedTarget>
CDK9/cyclin T1 (Homo sapiens)

>  <unit>
nM

>  <IC50>
35

$$$$
>  <compound>
Oc1ccc(Nc2nccc(-c3cccc(F)c3)n2)cc1

>  <testedTarget>
CDK9/cyclin T1 (Homo sapiens)

>  <unit>
nM

>  <IC50>
150

$$$$
>  <compound>
Oc1ccc(Nc2nccc(-c3cccc(Cn4cncn4)c3)n2)cc1

>  <testedTarget>
CDK9/cyclin T1 (Homo sapiens)

>  <unit>
nM

>  <IC50>
92

$$$$
>  <compound>
COc1cccc(Nc2nccc(-c3cccc(Cn4cncn4)c3)n2)c1

>  <testedTarget>
CDK9/cyclin T1 (Homo sapiens)

>  <unit>
nM

>  <IC50>
69

$$$$
>  <compound>
CC(=O)Nc1cccc(-c2ccnc(Nc3cccc([N+](=O)[O-])c3)n2)c1

>  <testedTarget>
CDK9/cyclin T1 (Homo sapiens)

>  <unit>
nM

>  <IC50>
40

$$$$
>  <compound>
Oc1cccc(Nc2nccc(-c3cccc(Cn4cncn4)c3)n2)c1

>  <testedTarget>
CDK9/cyclin T1 (Homo sapiens)

>  <unit>
nM

>  <IC50>
130

$$$$
>  <compound>
COc1ccc(-c2ccnc(Nc3cccc([N+](=O)[O-])c3)n2)cc1

>  <testedTarget>
CDK9/cyclin T1 (Homo sapiens)

>  <unit>
nM

>  <IC50>
20

$$$$
>  <compound>
OCC1CCCCN1Cc1cccc(-c2ccnc(Nc3cccc(O)c3)n2)c1 (stereo not drawn)

>  <testedTarget>
CDK9/cyclin T1 (Homo sapiens)

>  <unit>
nM

>  <IC50>
140

$$$$

====

The listing below reports pIC50 for molecules tested on PLK-1 (Homo sapiens).
Sequence (P53350 whole entry, species assumed): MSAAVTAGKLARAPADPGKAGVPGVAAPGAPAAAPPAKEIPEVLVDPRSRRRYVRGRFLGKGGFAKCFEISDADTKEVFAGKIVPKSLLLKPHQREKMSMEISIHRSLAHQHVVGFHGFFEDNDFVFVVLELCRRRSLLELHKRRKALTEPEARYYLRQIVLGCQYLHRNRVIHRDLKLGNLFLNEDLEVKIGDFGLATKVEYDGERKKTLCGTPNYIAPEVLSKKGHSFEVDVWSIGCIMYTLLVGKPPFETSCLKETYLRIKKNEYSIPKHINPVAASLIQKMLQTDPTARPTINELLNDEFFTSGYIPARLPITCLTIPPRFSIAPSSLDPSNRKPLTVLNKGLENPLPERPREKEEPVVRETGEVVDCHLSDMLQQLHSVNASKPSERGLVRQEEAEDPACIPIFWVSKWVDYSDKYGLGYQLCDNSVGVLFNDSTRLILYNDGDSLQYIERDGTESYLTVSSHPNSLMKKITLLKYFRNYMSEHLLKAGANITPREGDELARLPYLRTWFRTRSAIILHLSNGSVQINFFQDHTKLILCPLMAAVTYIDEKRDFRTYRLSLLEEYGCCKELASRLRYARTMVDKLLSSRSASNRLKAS
pIC50: −log10 of the molar value.

>  <givenSmiles>
CCN(C(C)=O)c1cccc(-c2ccnc(Nc3ccc(O)cc3)n2)c1

>  <testedTarget>
PLK-1 (Homo sapiens)

>  <pIC50>
5.32

$$$$
>  <givenSmiles>
CC(=O)N(CC(C)C)c1cccc(-c2ccnc(Nc3ccc(O)cc3)n2)c1

>  <testedTarget>
PLK-1 (Homo sapiens)

>  <pIC50>
4.84

$$$$
>  <givenSmiles>
CNc1cccc(-c2ccnc(Nc3ccc(O)cc3)n2)c1

>  <testedTarget>
PLK-1 (Homo sapiens)

>  <pIC50>
4.86

$$$$
>  <givenSmiles>
O=[N+]([O-])c1ccc(Nc2nccc(-c3cccc([N+](=O)[O-])c3)n2)cc1

>  <testedTarget>
PLK-1 (Homo sapiens)

>  <pIC50>
5.19

$$$$

====

- testedTarget: CDK9/cyclin T1 (Homo sapiens)
- assayProcedure: Kinase assay, radioactive phosphate incorporation, CDK9/cyclin T1
- Type: biochemical
- conditionLabel: 100 μM ATP, 30° C.; read-out: Kinase inhibition IC50 CDK9/cyclin T1

>  <givenSmiles>
CN(Cc1cccc(-c2ccnc(Nc3cccc([N+](=O)[O-])c3)n2)c1)S(=O)(=O)c1cccc([N+](=O)[O-])c1

>  <IC50 [µM]>
0.4

$$$$
>  <givenSmiles>
CN(c1cccc(-c2ccnc(Nc3cccc([N+](=O)[O-])c3)n2)c1)S(C)(=O)=O

>  <IC50 [µM]>
0.02

$$$$
>  <givenSmiles>
OCc1cccc(-c2ccnc(Nc3cccc(F)c3)n2)c1

>  <IC50 [µM]>
0.05

$$$$
>  <givenSmiles>
CN1CCN(Cc2cccc(-c3ccnc(Nc4cccc([N+](=O)[O-])c4)n3)c2)CC1

>  <IC50 [µM]>
0.022

$$$$

====

Measured IC50 by item
- testedTarget: CDK2/cyclin E (Homo sapiens)
- assayProcedure: Kinase assay, radioactive phosphate incorporation, CDK2/cyclin E
- Type: biochemical
- conditionLabel: 100 μM ATP, 30° C.; read-out: Kinase inhibition IC50 CDK2/cyclin E

>  <molecule>
Oc1ccc(Nc2nccc(-c3cccc(Cl)c3)n2)cc1

>  <testedTarget>
CDK2/cyclin E (Homo sapiens)

>  <IC50 (nM)>
390

$$$$
>  <molecule>
CN(c1cccc(-c2ccnc(Nc3cccc([N+](=O)[O-])c3)n2)c1)S(C)(=O)=O

>  <testedTarget>
CDK2/cyclin E (Homo sapiens)

>  <IC50 (nM)>
70

$$$$
>  <molecule>
CN(C)Cc1cccc(-c2ccnc(Nc3cccc(O)c3)n2)c1

>  <testedTarget>
CDK2/cyclin E (Homo sapiens)

>  <IC50 (nM)>
70

$$$$
>  <molecule>
COc1cccc(Nc2nccc(-c3cccc(Cn4cncn4)c3)n2)c1

>  <testedTarget>
CDK2/cyclin E (Homo sapiens)

>  <IC50 (nM)>
920

$$$$
>  <molecule>
CN(c1cccc(-c2ccnc(Nc3ccc(O)cc3)n2)c1)S(C)(=O)=O

>  <testedTarget>
CDK2/cyclin E (Homo sapiens)

>  <IC50 (nM)>
180

$$$$
>  <molecule>
CC(=O)N(CC(C)C)c1cccc(-c2ccnc(Nc3ccc(O)cc3)n2)c1

>  <testedTarget>
CDK2/cyclin E (Homo sapiens)

>  <IC50 (nM)>
550

$$$$
>  <molecule>
CC(=O)Nc1cccc(-c2ccnc(Nc3cccc(CO)c3)n2)c1

>  <testedTarget>
CDK2/cyclin E (Homo sapiens)

>  <IC50 (nM)>
1600

$$$$
>  <molecule>
Oc1cccc(Nc2nccc(-c3cccc(CNCc4ccccc4)c3)n2)c1

>  <testedTarget>
CDK2/cyclin E (Homo sapiens)

>  <IC50 (nM)>
860

$$$$
>  <molecule>
COc1cccc(-c2ccnc(Nc3ccc(O)cc3)n2)c1

>  <testedTarget>
CDK2/cyclin E (Homo sapiens)

>  <IC50 (nM)>
130

$$$$
>  <molecule>
CN(C)Cc1cccc(-c2ccnc(Nc3ccc(N4CCOCC4)cc3)n2)c1

>  <testedTarget>
CDK2/cyclin E (Homo sapiens)

>  <IC50 (nM)>
660

$$$$
>  <molecule>
CCN(C(C)=O)c1cccc(-c2ccnc(Nc3ccc(OC)cc3)n2)c1

>  <testedTarget>
CDK2/cyclin E (Homo sapiens)

>  <IC50 (nM)>
1100

$$$$
>  <molecule>
COc1ccc(-c2ccnc(Nc3cccc([N+](=O)[O-])c3)n2)cc1

>  <testedTarget>
CDK2/cyclin E (Homo sapiens)

>  <IC50 (nM)>
300

$$$$
>  <molecule>
O=[N+]([O-])c1cccc(Nc2nccc(-c3cccc(CN4CCCC(CCO)C4)c3)n2)c1 (stereo not drawn)

>  <testedTarget>
CDK2/cyclin E (Homo sapiens)

>  <IC50 (nM)>
60

$$$$
>  <molecule>
Oc1cccc(Nc2nccc(-c3cccc(Cl)c3)n2)c1

>  <testedTarget>
CDK2/cyclin E (Homo sapiens)

>  <IC50 (nM)>
1100

$$$$
>  <molecule>
O=[N+]([O-])c1ccc(Nc2nccc(-c3cccc(Cn4cncn4)c3)n2)cc1

>  <testedTarget>
CDK2/cyclin E (Homo sapiens)

>  <IC50 (nM)>
420

$$$$
>  <molecule>
COc1cc(Nc2nccc(-c3cccc(NC(C)=O)c3)n2)cc(OC)c1

>  <testedTarget>
CDK2/cyclin E (Homo sapiens)

>  <IC50 (nM)>
2700

$$$$
>  <molecule>
CN(C)c1ccc(Nc2nccc(-c3ccc(Cl)c(Cl)c3)n2)cc1

>  <testedTarget>
CDK2/cyclin E (Homo sapiens)

>  <IC50 (nM)>
6100

$$$$
>  <molecule>
Cc1ccc(C)c(-c2ccnc(Nc3cccc([N+](=O)[O-])c3)n2)c1

>  <testedTarget>
CDK2/cyclin E (Homo sapiens)

>  <IC50 (nM)>
1300

$$$$
